Target: T1, Cynomolgus monkey BCMA (cynomolgus monkey)
T1 construct: Soluble analyte in SPR; also called cyBCMA; Cyno BCMA
Experiment: SPR, IgG immobilised, cyno BCMA analyte
pKd: −log10 of the molar value.
The reader will find reported pKd values listed item by item below.
measurement.label: pKd

- binder: "COMBO_Rd4_6nM_C02 (antibody, V domains shown, IgG) VH: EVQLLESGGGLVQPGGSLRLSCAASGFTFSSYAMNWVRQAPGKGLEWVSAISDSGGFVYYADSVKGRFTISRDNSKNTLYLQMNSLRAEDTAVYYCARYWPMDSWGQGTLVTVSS VL: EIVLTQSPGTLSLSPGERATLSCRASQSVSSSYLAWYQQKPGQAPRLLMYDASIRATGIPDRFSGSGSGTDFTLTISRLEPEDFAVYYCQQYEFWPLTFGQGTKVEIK"
  meas.value: 8.77
- binder: "COMBO_Rd4_0.6nM_C21 (antibody, V domains shown, IgG) VH: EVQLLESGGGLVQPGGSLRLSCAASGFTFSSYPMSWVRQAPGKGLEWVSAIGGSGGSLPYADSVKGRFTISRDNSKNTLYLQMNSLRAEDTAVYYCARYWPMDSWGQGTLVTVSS VL: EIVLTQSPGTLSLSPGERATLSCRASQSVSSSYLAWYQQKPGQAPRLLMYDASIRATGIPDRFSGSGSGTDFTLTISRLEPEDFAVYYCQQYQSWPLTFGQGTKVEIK"
  meas.value: 10.08
- binder: "A02_Rd4_6nM_C10 (antibody, V domains shown, IgG) VH: EVQLLESGGGLVQPGGSLRLSCAASGFTFSSYAMNWVRQAPGKGLEWVSAISDSGGSCWYADSVKGRFTISRDNSKNTLYLQMNSLRAEDTAVYYCARYWPMTPWGQGTLVTVSS VL: EIVLTQSPGTLSLSPGERATLSCRASQSVEMSYLAWYQQKPGQAPRLLMYDASIRATGIPDRFSGSGSGTDFTLTISRLEPEDFAVYYCQQYAHWPLTFGQGTKVEIK"
  meas.value: 9.33
- binder: "A02_Rd4_0.6nM_C01 (antibody, V domains shown, IgG; also called P5AC1) VH: EVQLLESGGGLVQPGGSLRLSCAASGFTFSSYAMNWVRQAPGKGLEWVSAILSSGGSTYYADSVKGRFTISRDNSKNTLYLQMNSLRAEDTAVYYCARYWPMDIWGQGTLVTVSS VL: EIVLTQSPGTLSLSPGERATLSCRGGQSVSSSYLAWYQQKPGQAPRLLMYDASIRATGIPDRFSGSGSGTDFTLTISRLEPEDFAVYYCQQYQSWPLTFGQGTKVEIK"
  meas.value: 9.18
